assay text: Metabolic stability of test compound in human hepatocyte cell
Type: in vitro ADME
applied conditions: cryopreserved human hepatocytes (suspension); human hepatocytes, scale-up intrinsic clearance, scaling factor 2544.3; read-out: Clint (liver)
Method: • 1. The cryopreserved human hepatocytes cells were thawed in 37° C. water bath and diluted with pre-warmed incubation medium to a working cell density of 1×10^6 viable cells/mL. • 2. […] All calculations were carried out using Microsoft Excel. Peak areas were determined from extracted ion chromatograms. […] The in vitro half-life (in vitro t1/2) is determined from the slope value k: […]
value kind: CLint scaled at 1 uM (mL/min/kg)
Record the value in mL/min/kg, omitting the unit from your answer.

Q: Sample CCOC(=O)C1=C(CN2CCN3C(=S)N(CC(C)(C)C(=O)O)CC3C2)NC(c2nccs2)=NC1c1cccc(F)c1Cl (single isomer, unassigned) [Compound 3B] — what was its CLint scaled at 1 uM?
A: 10.1

Q: Sample CCOC(=O)C1=C(CN2CCN3C(=O)N(CC(C)(C)C(=O)O)C[C@@H]3C2)NC(c2nccs2)=N[C@H]1c1cccc(F)c1C [Reference 2, reference compound] — what was its CLint scaled at 1 uM?
A: 12

Q: Sample CCOC(=O)C1=C(CN2CCN3C(=S)N(CC(C)(C)C(=O)O)CC3C2)NC(c2nccs2)=N[C@H]1c1cccc(F)c1C (single isomer, unassigned) [Compound 1A] — what was its CLint scaled at 1 uM?
A: 7.7

* * *

Provide the reported IV AUCinf/Dose of each item.
assay text: Pharmacokinetic and tissue distribution study via intravenous and oral administration in male C57BL/6 mice
Format: in vivo
applied conditions: mice plasma, IV, nominal 2 mg/kg
Record the value in ng·kg·h/mg/mL, omitting the unit from your answer.

Q: Sample CCOC(=O)C1=C(CN2CCN3C(=O)N(CC(C)(C)C(=O)O)C[C@@H]3C2)NC(c2nccs2)=N[C@H]1c1cccc(F)c1C [Reference 2, reference compound] — what was its IV AUCinf/Dose?
A: 345.2

Q: Sample CCOC(=O)C1=C(CN2CCN3C(=S)N(CC(C)(C)C(=O)O)CC3C2)NC(c2nccs2)=NC1c1cccc(F)c1Cl (single isomer, unassigned) [Compound 3B] — what was its IV AUCinf/Dose?
A: 830.9

Q: Sample CCOC(=O)C1=C(CN2CCN3C(=S)N(CC(C)(C)C(=O)O)CC3C2)NC(c2nccs2)=N[C@H]1c1cccc(F)c1C (single isomer, unassigned) [Compound 1A] — what was its IV AUCinf/Dose?
A: 1078.3

Q: Sample CCOC(=O)C1=C(CN2CCOCC2)NC(c2nccs2)=NC1c1ccc(F)cc1Br (stereo not shown) [Reference 1, GLS4, reference compound] — what was its IV AUCinf/Dose?
A: 232.5

* * *

assay text: Cytotoxicity determination in HepG2.2.15 cells (CCK-8 assay)
Assay type: cell-based
applied conditions: human, 6 days treatment, CCK-8, highest concentration 100 uM
value kind: CC50 at 6 days (µM)
Record the value in µM, omitting the unit from your answer.

Q: Sample COC(=O)C1=C(CN2CCN3C(=S)N(CC(C)(C)C(=O)O)C[C@@H]3C2)NC(c2nccs2)=N[C@H]1c1ccc(F)cc1Br (single isomer, unassigned) [Compound 16B] — what was its CC50 at 6 days?
A: 29.5

Q: Sample CCOC(=O)C1=C(CN2CCN3C(=CC#N)N(CC(C)(C)C(=O)O)CC3C2)NC(c2nccs2)=N[C@H]1c1cccc(F)c1C (some centres unmarked) — what was its CC50 at 6 days?
A: 68.7

Q: Sample CCOC(=O)C1=C(CN2CCN3C(=S)N(C)C[C@@H]3[C@H]2C(=O)O)NC(c2nccs2)=N[C@H]1c1cccc(F)c1Cl (single isomer, unassigned) [Compound 19B] — what was its CC50 at 6 days?
A: 51.2

Q: Sample CCOC(=O)C1=C(CN2CCN3C(=S)N(CC(C)(C)C(=O)O)CC3C2)NC(c2ncoc2C)=NC1c1cccc(F)c1C (single isomer, unassigned) [Compound 26A] — what was its CC50 at 6 days?
A: 26.2

Q: Sample COC(=O)C1=C(CN2CCN3C(=S)N(CC(C)(C)C(=O)O)CC3C2)NC(c2nccs2)=NC1c1ccc(F)c(F)c1Cl (single isomer, unassigned) [Compound 11A] — what was its CC50 at 6 days?
A: 16.2

Q: Sample CCOC(=O)C1=C(CN2CCN3C(=S)N(CC(C)(C)C(=O)O)CC3C2)NC(c2nccs2)=NC1c1ccc(F)c(F)c1Cl (single isomer, unassigned) [Compound 14A] — what was its CC50 at 6 days?
A: 9.6

Q: Sample COC(=O)C1=C(CN2CCN3C(=S)N(CC(C)(C)C(=O)O)C[C@@H]3C2)NC(c2nccs2)=N[C@@H]1c1ccc(F)cc1Br (single isomer, unassigned) [Compound 16A] — what was its CC50 at 6 days?
A: 15.3

Q: Sample CCOC(=O)C1=C(CN2CCN3C(=S)N(CC4(C(=O)O)CC4)CC3C2)NC(c2nccs2)=N[C@H]1c1cccc(F)c1C (single isomer, unassigned) — what was its CC50 at 6 days?
A: 14.9

Q: Sample COC(=O)C1=C(CN2CCN3C(=S)N(CC(C)(C)C(=O)O)CC3C2)NC(c2nccs2)=NC1c1cccc(F)c1C (single isomer, unassigned) [Compound 10B] — what was its CC50 at 6 days?
A: 23.2

Q: Sample CCOC(=O)C1=C(CN2CCN3C(=S)N(CCC(C)(C)C(=O)O)CC3C2)NC(c2nccs2)=N[C@H]1c1cccc(F)c1C (some centres unmarked) — what was its CC50 at 6 days?
A: 10.9
